Biological target: influenza virus X-31 hemagglutinin (HA) (Influenza A virus X-31 (H3N2; HA of …, UniProt P03437, strain)
QUANTITY_KIND: binding result

{"columns": ["BINDER", "VALUE"],
 "data": [
  ["4F9 (VHH) VHH: EVQLVESGGGLVKPGGSLRLSCAASGFTFSDYYMSWIRQAPGKGLEWVSYISSSGSTIYYADSVKGRFTISRDNAKNSLYLQMNSLRAEDTAVYYCARDLVGATDFDYWGQGTLVTVSS", "binds"],
  ["4E8 (VHH) VHH: EVQLVESGGGLVKPGGSLRLSCAASGFTFSDYYMSWIRQAPGKGLEWVSYISSSGSTIYYADSVKGRFTISRDNAKNSLYLQMNSLRAEDTAVYYCARGISLTGDYWGQGTLVTVSS", "binds"]
]}
